# Assay target: Rat brain protein farnesyltransferase (Rattus norvegicus, UniProt Q02293+Q04631)
# Construct: Rat brain protein farnesyltransferase activity is measured; from tissue; host or cells: rat brain
# Test description: % inhibition of farnesylation, scintillation proximity assay with biotin-K Ras B fragment
# Assay type: biochemical
# Experimental context: read-out: % inhibition at 0.01 μM (**); Table 6; ** footnote 0.01 μM (title: 0.01 mM)
Where a name gives a salt, the structure may show the parent alone.
Endpoint label: inhibition at 0.01 µM (%)

{"columns": ["Compound", "Assay target", "Numeric result"],
 "data": [
  ["COc1ccc(COC[C@H](CC2CCCCC2)OCc2ccc(C(=O)N[C@@H](CCSC)C(=O)O)c(-c3ccccc3C)c2)cc1 [Example 1051, lithium salt]", "Rat brain protein farnesyltransferase (Rattus norvegicus, UniProt Q02293+Q04631)", 79],
  ["CSCC[C@H](NC(=O)c1ccc(COCC2CCCN2C(=O)OCC2CCCCC2)cc1-c1ccccc1C)C(=O)O (stereo partly drawn) [Example 1129, Sodium salt]", "Rat brain protein farnesyltransferase (Rattus norvegicus, UniProt Q02293+Q04631)", 92],
  ["CSCC[C@H](NC(=O)c1ccc(CO[C@@H](CC2CCCCC2)C(=O)N2CC[S+]([O-])CC2)cc1-c1ccccc1C)C(=O)O [Example 1055, lithium salt]", "Rat brain protein farnesyltransferase (Rattus norvegicus, UniProt Q02293+Q04631)", 85]
]}

P. CC[S+]([O-])C[C@H](CC1CCCCC1)OCc1ccc(C(=O)N[C@@H](CCSC)C(=O)O)c(-c2ccccc2C)c1 (stereo partly drawn) [Example 1310, Lithium Salt]
Q. COCCOCOC[C@H](CC1CCCCC1)OCc1ccc(C(=O)N[C@@H](CCSC)C(=O)O)c(-c2ccccc2C)c1 [Example 1050, lithium salt]
query: Could you determine which record has the numerically smaller inhibition at 0.01 µM? Candidates: P and Q Answer with the label corresponding to your selection.
result: Q
(Q: 62%, P: 90%)
